Target: EPHB2 (UniProt P29323)
Sequence (P29323 whole entry, looked up): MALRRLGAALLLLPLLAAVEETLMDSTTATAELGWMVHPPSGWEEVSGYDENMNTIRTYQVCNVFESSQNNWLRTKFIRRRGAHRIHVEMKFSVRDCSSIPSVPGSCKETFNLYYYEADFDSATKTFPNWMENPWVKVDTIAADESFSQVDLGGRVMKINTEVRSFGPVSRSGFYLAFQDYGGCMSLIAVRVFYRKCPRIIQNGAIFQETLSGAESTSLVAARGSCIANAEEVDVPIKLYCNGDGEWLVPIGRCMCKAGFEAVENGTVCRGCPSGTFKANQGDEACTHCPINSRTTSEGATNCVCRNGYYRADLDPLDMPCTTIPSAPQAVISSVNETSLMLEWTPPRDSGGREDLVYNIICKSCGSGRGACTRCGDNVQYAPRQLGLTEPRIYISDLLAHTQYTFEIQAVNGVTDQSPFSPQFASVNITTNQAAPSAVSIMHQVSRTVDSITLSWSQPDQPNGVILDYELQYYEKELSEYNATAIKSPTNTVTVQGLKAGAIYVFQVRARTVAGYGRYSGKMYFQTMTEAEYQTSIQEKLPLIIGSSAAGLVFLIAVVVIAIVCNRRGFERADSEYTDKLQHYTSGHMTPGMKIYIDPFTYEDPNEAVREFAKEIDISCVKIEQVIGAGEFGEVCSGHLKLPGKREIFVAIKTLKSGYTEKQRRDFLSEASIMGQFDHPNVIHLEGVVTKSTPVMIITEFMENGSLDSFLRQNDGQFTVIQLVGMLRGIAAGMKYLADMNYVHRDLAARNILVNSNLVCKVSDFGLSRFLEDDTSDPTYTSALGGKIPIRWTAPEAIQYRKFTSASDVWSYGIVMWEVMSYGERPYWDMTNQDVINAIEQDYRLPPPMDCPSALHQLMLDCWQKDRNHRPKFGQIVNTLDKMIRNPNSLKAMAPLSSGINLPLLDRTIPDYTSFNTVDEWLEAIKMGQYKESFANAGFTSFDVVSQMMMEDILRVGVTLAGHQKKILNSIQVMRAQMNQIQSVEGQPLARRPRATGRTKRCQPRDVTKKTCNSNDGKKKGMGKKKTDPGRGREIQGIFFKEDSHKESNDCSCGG
Assay: phosphorylation enrichment, bacterial display (enrichment ratio); higher = better substrate or ligand; peptides without Tyr show the background
sequences and their reported phosphorylation enrichment
PARAMETER: phosphorylation enrichment

- FLTLHYDAKPQ [ANG_Y38_Q36L]: 0.426
- KAIMTYVSSFF [ACTN4_Y260_YF]: 0.602
- EEGNPYYSGAR [MCCC2_Y520_S523G]: 0.551
- QSPQLYKQLCI [DARS1_Y253_M256L]: 0.957
- CTTIHNNFMCN [TP53_Y234_Y234N_YF]: 0.591
- GGQSVYHVNLH [HINT1_Y109_H112N]: 0.364
- KGEDFYSVTCH [FHL1_Y149_C150S]: 0.632
- IMAFFYMCDSA [CASD1_Y382_R386S_YF]: 0.782
- WFQTKYEELQI [KRT6B_Y360_YF]: 0.488
- RRGTGYTLPLP [MAGEC3_Y152_S155P]: 0.387
- PKGTGYIKTEL [STAT1_Y701]: 0.557
- LGNFNYEQRGA [API5_Y497]: 0.456
- GRTPLYMDRQG [AGXT_Y194_G190R]: 0.443
- YKEDPYLVVNP [MCM6_Y810_E806K]: 0.515
- PLGPLYASSNT [INSR_Y992_P997T]: 0.783
- GSSSSYGQHGS [HRNR_Y517]: 0.343
- DSYWSYCNAVA [SLC20A2_Y436_S434W]: 1.93
- SSMIDYNPLEK [MYOC_Y479]: 0.533
- QPSALYEDRFL [ASS1_Y83_S79P_YF]: 2.01
- WSRAMYPDLGP [STARD8_Y330]: 0.397
- PEADKYRLTYA [FGG_Y300]: 1.09
- ITQRAYRRHLL [SCN1A_Y1926_I1922T]: 0.417
- LRSKQYLRNPP [SHC1_Y315_F312S]: 0.359
- RWQQLYDTLNA [EIF3M_Y351_Q346R]: 2.02
- YDGKEYDPVEA [MAPRE2_Y167]: 0.637
- FQGRRYDCDCD [CRYGS_Y21]: 0.383
- SHNKYYMLVAR [MFSD8_Y134]: 0.675
- ANNPLYKEVTS [ITGB3_Y773_A776V]: 0.409
- INQGPYENRSV [ATP6V1B1_Y462]: 0.568

###

System: c-Src
Assay: phosphorylation enrichment, bacterial display (enrichment ratio); higher = better substrate or ligand; peptides without Tyr show the background
PARAMETER: phosphorylation enrichment

* PYSNSYENSLI [EPOR_Y489_P488S] | 0.689
* YLEEEYVKAVG [TF_Y674_G671E] | 0.505
* IMAFFYMCDSA [CASD1_Y382_R386S_YF] | 0.596
* VTGWGYRKLRE [F11_Y521_D526E] | 0.578
* KAIMIYVSSFF [ACTN4_Y260_T259I_YF] | 0.534
* VRTGIYHGGEP [PIK3CA_Y361] | 0.498
* SPLTDYSPQLQ [OTC_Y345_L341P] | 0.496

###

Target: Grb2 SH2 (UniProt P62993)
Sequence (P62993 whole entry, looked up): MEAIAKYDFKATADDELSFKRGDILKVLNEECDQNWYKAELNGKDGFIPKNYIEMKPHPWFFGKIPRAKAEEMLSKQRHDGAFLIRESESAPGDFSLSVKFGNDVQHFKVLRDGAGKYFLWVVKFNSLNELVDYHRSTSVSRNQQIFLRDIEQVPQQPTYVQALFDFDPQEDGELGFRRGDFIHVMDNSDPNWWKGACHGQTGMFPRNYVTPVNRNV
Assay: SH2 binding enrichment of the phosphorylated peptide, bacterial display (enrichment ratio); higher = better substrate or ligand; peptides without Tyr show the background
Label rule, in plain words: SH2 binding enrichment of 0.8 and up is met, under 0.8 is not met.

- ERFSYYGMKAV [SLC15A2_Y61]: met
- HVIKLYGACSQ [RET_Y791]: not met
- PGQAAYQKVVA [HBB_Y131_V127G]: met
- FGSRLYKFAFK [FANCD2_Y458_L456R_YF]: met
- GFFDLYGGEKF [PTPN11_Y66_D61G_YF]: met
- DAVCYYRMENA [NPHS2_Y195_I192V]: not met
- AELVPYFMEHH [PTPN11_Y80_Q79P_YF]: met
- QCTSAHPLQPE [NANS_Y188_Y188H]: not met
- ERSMSYSDESR [SMG1_Y143]: met
- ASFPLYEPAKM [MKI67_Y340]: met
- KMTGRYEMFAR [UPB1_Y362_YF]: met
- GHPFAYDWISI [BEST1_Y227_L224P_YF]: met
- IDPYTYTPFGS [CYP3A4_Y432_I431T]: met
- AELVRYYMEHH [PTPN11_Y80_Q79R]: met
- GLNKGYRMVVN [HINT1_Y94]: not met
- QDEHGYISWCF [HSPB1_Y133_R136W]: not met
- VHNLNYFKKTT [FGFR3_Y647_D646N_YF]: met
- TFEYRYLEDQD [CNOT3_Y746_R750Q]: not met
- PIFEGYGLPHA [ACTA1_Y171_A172G_YF]: not met
- RIDPDYMGRVR [IGSF9_Y81_V82M]: met
- NTCNRYCCDEI [ITGB3_Y660_R662C]: met
- TLKDVCDDGKY [RPS6KA3_Y483_Y483C]: met
- SSMSDYNPLEK [MYOC_Y479_I477S]: not met
- NTQRPHYKGGG [TYROBP_Y111_Y111H]: met
- TACNPYKPPGP: met
- ELTAKYLNYYQ [P3H4_Y181]: met

###

Target: EPHB1 (UniProt P54762)
Sequence (P54762 whole entry, looked up): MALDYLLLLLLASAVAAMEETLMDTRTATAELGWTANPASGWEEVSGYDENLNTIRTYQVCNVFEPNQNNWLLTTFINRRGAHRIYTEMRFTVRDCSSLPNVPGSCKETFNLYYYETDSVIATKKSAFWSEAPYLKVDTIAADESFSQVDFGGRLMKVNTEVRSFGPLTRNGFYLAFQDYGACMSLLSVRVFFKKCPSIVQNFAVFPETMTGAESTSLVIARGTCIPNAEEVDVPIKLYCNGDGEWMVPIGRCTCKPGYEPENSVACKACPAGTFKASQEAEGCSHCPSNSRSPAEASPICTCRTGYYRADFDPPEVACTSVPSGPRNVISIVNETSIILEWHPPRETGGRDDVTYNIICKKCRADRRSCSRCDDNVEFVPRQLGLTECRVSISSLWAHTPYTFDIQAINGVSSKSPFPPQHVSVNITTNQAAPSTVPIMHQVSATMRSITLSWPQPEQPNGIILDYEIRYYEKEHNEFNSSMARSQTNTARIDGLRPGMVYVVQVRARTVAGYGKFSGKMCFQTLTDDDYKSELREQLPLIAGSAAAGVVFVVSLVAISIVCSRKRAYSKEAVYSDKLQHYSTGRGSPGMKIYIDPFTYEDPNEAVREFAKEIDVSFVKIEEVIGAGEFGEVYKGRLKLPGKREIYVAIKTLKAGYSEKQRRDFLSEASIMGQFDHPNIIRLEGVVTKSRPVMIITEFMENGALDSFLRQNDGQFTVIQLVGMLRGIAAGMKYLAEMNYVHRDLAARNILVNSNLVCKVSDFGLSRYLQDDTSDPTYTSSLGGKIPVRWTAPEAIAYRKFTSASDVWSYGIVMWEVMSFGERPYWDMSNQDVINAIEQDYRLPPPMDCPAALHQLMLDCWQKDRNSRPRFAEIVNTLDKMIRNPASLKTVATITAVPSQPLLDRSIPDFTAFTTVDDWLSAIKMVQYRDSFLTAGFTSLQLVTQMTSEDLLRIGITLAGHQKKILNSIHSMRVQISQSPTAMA
Test: phosphorylation enrichment, bacterial display (enrichment ratio); higher = better substrate or ligand; peptides without Tyr show the background
Here the recorded phosphorylation enrichment is given for each entry.
PARAMETER: phosphorylation enrichment

* FSPFDYQPCLA [TNS1_Y798_YF] | 0.775
* GLNKGYRMVVN [HINT1_Y94] | 0.307
* EPVSDYINANV [PTPN11_Y304_I309V] | 0.42
* SSMSDYNPLEK [MYOC_Y479_I477S] | 0.501
* FQEKGYNKEPR [CHRND_Y38_L42P] | 0.738
* PEADKYRLTYA [FGG_Y300] | 0.832
* EIVFVYVKKRS [DNAI2_Y7_YF] | 0.373
* KMTGRYEMFAR [UPB1_Y362_YF] | 0.496
* PSDPSYEDMRE [BMPR1A_Y467] | 0.901
* KALSLYTKLMN [STAM_Y371_E366K] | 0.673
* KGEPQYSSHSS [SIPA1L3_Y1265] | 0.327
* SPLTDYSPQLQ [OTC_Y345_L341P] | 0.414
* AKKKMYSRKTK [AGXT_Y231] | 0.437
* AGLEDYDRLRP [RAC3_Y64_Q61L] | 0.505
* EWLRRYLENGK [HLA-A_Y195] | 0.386
* GENTMYAQVFN [LY9_Y603] | 1.47
* ENPLDYGSAWA [AR_Y395] | 0.46
* WFQTKYEELQI [KRT6B_Y360_YF] | 0.446

###

Target: Jak2 (UniProt O60674)
Sequence (O60674 whole entry, looked up): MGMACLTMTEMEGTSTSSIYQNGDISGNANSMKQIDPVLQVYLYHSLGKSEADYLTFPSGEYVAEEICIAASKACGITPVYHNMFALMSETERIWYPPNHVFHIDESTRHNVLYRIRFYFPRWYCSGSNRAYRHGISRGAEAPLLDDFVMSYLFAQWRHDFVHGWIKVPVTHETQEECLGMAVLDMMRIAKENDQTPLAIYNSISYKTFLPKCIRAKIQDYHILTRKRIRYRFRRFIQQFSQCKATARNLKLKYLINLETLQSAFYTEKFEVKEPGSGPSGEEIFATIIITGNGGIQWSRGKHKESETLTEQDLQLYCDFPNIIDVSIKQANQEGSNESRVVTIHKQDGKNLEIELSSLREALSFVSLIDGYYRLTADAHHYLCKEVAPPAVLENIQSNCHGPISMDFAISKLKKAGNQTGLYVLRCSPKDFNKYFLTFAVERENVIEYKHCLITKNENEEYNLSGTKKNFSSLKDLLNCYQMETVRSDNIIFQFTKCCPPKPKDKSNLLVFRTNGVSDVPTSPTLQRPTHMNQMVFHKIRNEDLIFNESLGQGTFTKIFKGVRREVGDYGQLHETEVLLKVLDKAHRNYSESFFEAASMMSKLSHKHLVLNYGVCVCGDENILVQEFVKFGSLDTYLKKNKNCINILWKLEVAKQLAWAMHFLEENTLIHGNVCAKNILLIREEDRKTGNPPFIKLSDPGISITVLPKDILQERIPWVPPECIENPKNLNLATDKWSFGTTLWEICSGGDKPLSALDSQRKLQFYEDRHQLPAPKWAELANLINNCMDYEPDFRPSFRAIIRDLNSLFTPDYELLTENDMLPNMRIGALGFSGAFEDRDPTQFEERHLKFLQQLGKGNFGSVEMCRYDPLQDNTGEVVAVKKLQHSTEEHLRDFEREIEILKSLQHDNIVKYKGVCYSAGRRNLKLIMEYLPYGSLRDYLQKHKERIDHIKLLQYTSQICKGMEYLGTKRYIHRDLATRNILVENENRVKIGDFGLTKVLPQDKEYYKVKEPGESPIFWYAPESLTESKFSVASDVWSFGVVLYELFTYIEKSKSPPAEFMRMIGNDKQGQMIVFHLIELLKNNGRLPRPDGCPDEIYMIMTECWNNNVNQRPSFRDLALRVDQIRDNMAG
Experiment: phosphorylation enrichment, bacterial display (enrichment ratio); higher = better substrate or ligand; peptides without Tyr show the background
PARAMETER: phosphorylation enrichment

- SVTCTYSPARN [TP53_Y126_L130R]: 1.06
- LICRRYLVMQR [IL3RA_Y328_V323L]: 2.35
- PGLKGYPGLSG [COL4A2_Y306_R304K]: 0.422
- AAYNKYDQERF [CDC73_Y293_R292K]: 0.739
- RSSNTYTLTDV [ALCAM_Y298]: 0.805
- LSSETYVKSFT [F5_Y2149_M2148T_YF]: 1.06
- HKANEYYPVVI [ADAMTS18_Y764_L769I]: 2.19
- GRSTFYWPSPR [GAGE12J_Y10_R13S_YF]: 0.713
- EYKDAYKFAAD [BRDT_Y335]: 0.722
- VYPATYHPDHW [EFCAB12_Y544]: 0.639
- CTTVHYNFMCN [TP53_Y234_I232V_YF]: 0.622
- EQYELHCEMGS [CBL_Y371_Y371H]: 1.03
- QFNMQYSSSAA [ERBB2IP_Y981_I979M_YF]: 0.581
- HLMLQYDAVVN [SLC25A32_Y152_R147H]: 1.51
- CPYNLYAEQLS [HGD_Y40]: 1.39
- RQSTLYSFFPT [MSH6_Y8_K13T]: 0.824
- FHLGKYLQEVL [KLB_Y910_Y906H_YF]: 1.36
- NNRVFYGNSDR [RS1_Y177]: 0.546
- FQNSLYAPDYS [FAM92A_Y226_R222Q]: 0.945
- TIQRMYGCDVG [HLA-A_Y123_I121R]: 0.789
- LFNQDYPIHCV [GATM_Y227_S231C_YF]: 1.17
- EFNLMYDGAKE [IRF6_Y97_T100A]: 1.13
- MARDISRASFF [ALK_Y1278_Y1278S_YF]: 0.53
- DAVCYYRMENA [NPHS2_Y195_I192V]: 6.76
- PGPPGYCDSSQ [COL12A1_Y3043]: 1.08
- ERFSYYGMKAV [SLC15A2_Y61]: 4.66
- KHMADYPDFKF [SOX11_Y113_YF]: 0.669
- GRVLGYGAFGK [FLT4_Y853]: 0.662
- GFPVRYTDVSN [DNMT3B_Y815_H814R]: 0.712
- FETNVYVDKNL [PTCHD3_Y688_K685T]: 0.53
- GNHVSYFQSDG [CACNA1C_Y1757_YF]: 0.636
- QSSALYEDHFL [ASS1_Y83_R86H_YF]: 0.898
- GHPFAYDWISI [BEST1_Y227_L224P_YF]: 0.774
- TQKLAYMELQQ [CENPF_Y700]: 0.794
- PKGTGYIKTEL [STAT1_Y701]: 0.986
- FGGLRYGFGGL [KRTAP20-2_Y13_V17G_YF]: 0.664
- VYSIDYYRVGG [NTRK2_Y706_T704I]: 7.33
- ENQEIYRKAFD [KPNA1_Y493_Q494R]: 1.3
- FGMSTYITRED [FNDC3B_Y180_YF]: 0.95
- QLHEHYKIHKE [NSMAF_Y626]: 0.641
- VAVVQYSGMGQ [COL6A1_Y878_T881M]: 0.612
- DLEKTYNTFRS [B4GALNT2_Y538_A533D_YF]: 0.736
- KDHPDYKFQLR [SOX10_Y171_P175L_YF]: 0.698
- SRIWVYNHYRC [BRCA2_Y2621_W2626C]: 0.934
- EPAVLYNLKDR [MYH7_Y103]: 0.585
- GSERDYTYEEL [EIF2S2_Y174]: 1.29
- AEFGLYGAMVW [VSX2_Y222_R227W_YF]: 1.38
- AVARPYHIQKW [ACSBG1_Y677_A673V]: 0.461
- SYSGEYGSGGG [ZG16_Y30_G32S]: 0.727
- EEVGIYRMSGV [BCR_Y1089_V1091M]: 1.12
- SNSATYSGSVA [PDLIM5_Y382]: 0.48
- RWGQKHMTAVV [CYBA_Y72_Y72H]: 2.7
- NVVNEYSSELE [FGB_Y172]: 0.99
- NPQKPYFIRLY [WAS_Y83_S82P]: 0.906
- NGVSFYINLCQ [IGF2R_Y2025_YF]: 1.92
- MFRVQYNSSVD [LRFN1_Y458_Q455R_YF]: 0.908
